# Test system: OVCAR-5 ovarian
# experiment notes: NCI-60 one-dose screen, 48 h (100 = growth as untreated, 0 = no growth, -100 = all killed)
# condition set: 10 µM
# Method: Growth inhibition of the OVCAR-5 human tumor cell line is measured as a screen for anti-cancer activity. Cells are grown in 96 well plates and exposed to the test compound for 48 hours. Compounds are tested at a single concentration, which is 10^-5 M for most compounds. The reported endpoint is percent growth (GI% or GIPRCNT), where numbers from 0 - 100% represent growth inhibition, and numbers from -100% - 0 represent cell death. For example, a value of 40 represents 60% growth inhibition. […]
The panel holds about 83,000 compounds, 20% with a hit somewhere; the sample as a whole holds those more often.
Record form. Attribute: growth. Fill in for each entry.
The answer is to be given in %; state only the numeric part.

Looking for the measured growth of "CCN(CC)CCCOCCCNc1cc(OC)cc2cccnc12" , can you help?
102

Can you look up the measured growth of COc1ccc(C2=Nc3c(C)nn(-c4ccccc4)c3NC(c3ccc(Oc4ccnc5cc(Cl)ccc45)c(OC)c3)C2)cc1 (stereo not given) for me?
95.2

# input compound: CC(C)=NNc1ncnc2c1ncn2C1OC(CO)C(O)C1O (stereo not given) ; wanted: its growth
49.2

Reported growth, compound CCCCCCCCCCCCCCCC(=O)OC1[C@@H](OC(=O)CCCCCCCCCCCCCCC)[C@@H](C(=O)N[C@@H](CCCCN)C(=O)OC)O[C@H]1n1cnc2c(=O)[nH]c(NC(=O)C(C)C)nc21 (stereo not given in full) : ____
108

So what's the measured growth for this one? "c1ccc2c(c1)oc1c3c(ccc12)NCCC3"
102

// growth lookup, key: "O=C(Nc1cccc(Br)c1)c1cc(=O)[nH]c2ccccc12"
90.8

Dear colleague, I am looking for the recorded growth of the following compound: "C[C@]12CC[C@@H]3c4ccc(O)cc4C[C@@H](O)[C@H]3[C@@H]1CC[C@@H]2O"
111

Recorded growth for "c1ccc2c(-c3nc(N4CCOCC4)c4c5c(sc4n3)CCCCCC5)cccc2c1" , please?
103

Request the reported growth associated with "O=C(c1ccc(Cl)cc1Cl)N1CCOCC1"
96

Recorded growth for "O=[N+]([O-])c1cccc(-c2ncc(-c3ccc(Cl)cc3Cl)[nH]2)c1" , please?
117

Which growth reading was recorded for the compound "CNc1ccc(CSc2ccc(C)cc2)cc1" ?
101

Report growth for "Cc1ccc(C(=O)N2C/C(=C/c3ccc(F)cc3)C(=O)/C(=C/c3ccc(F)cc3)C2)cc1" please.
110

Recorded growth for "CCCCCCc1cc(N=Nc2ccc(S(=O)(=O)Nc3cc(C)nc(C)n3)cc2)c(O)cc1O" , please?
113

Data request, read-out growth, for "CC(C)(C)c1cc(Br)cc(C(C)(C)C)c1O"
111

Which growth reading was recorded for the compound "COc1cc(Cl)cc(-c2nn(-c3cccc(NC(=O)c4ccc(Cl)c(Cl)c4)c3)cc2-c2ccncc2)c1" ?
79.2

Which growth value is on record for "CCCCCCCCN(CCCCCCCC)CCCCCCCCCN1CCCc2cc(OC)ccc21" ?
90.9

Request the reported growth associated with "O=[P@@]1(c2ccccc2)O[C@H](COCc2ccccc2)[C@@H](OCc2ccccc2)[C@H](OCc2ccccc2)[C@H]1O"
99.3

Fill blank: measured growth of the compound "COC(=O)c1c(-c2ccccc2)csc1NC(=O)c1c(-c2ccccc2)noc1C" is ____.
63

Give the measured growth of "O=S(=O)(NCCNc1nccc(-c2c(-c3ccc(F)cc3)nc3sccn23)n1)c1ccc2ccccc2c1" .
130

// returns reported growth for input "O=C(O)CN1C(=O)c2cccc3cccc(c23)C1=O"
105
